In this section we review reported Kd values for a set of binders.
Biological target: T1, Human latent myostatin (human, UniProt O14793 25-266; O14793 267-375)
T1 construct: also called human myostatin latent form
T1 sequence 1: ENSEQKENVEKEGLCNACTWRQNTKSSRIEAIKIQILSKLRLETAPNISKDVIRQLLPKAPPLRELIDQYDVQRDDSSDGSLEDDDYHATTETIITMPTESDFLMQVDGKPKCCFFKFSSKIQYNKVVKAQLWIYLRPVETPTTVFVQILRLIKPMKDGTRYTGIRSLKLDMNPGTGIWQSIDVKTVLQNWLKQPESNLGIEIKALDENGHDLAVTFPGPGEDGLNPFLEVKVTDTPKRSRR
T1 sequence 2: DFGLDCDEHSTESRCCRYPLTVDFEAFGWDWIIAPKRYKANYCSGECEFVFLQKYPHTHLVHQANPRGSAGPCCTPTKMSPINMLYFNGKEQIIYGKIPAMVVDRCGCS
Experiment: SPR (BIACORE T200) 37C, pH 7.4, antibody captured by ProA/G
The reply must contain the numeric value and, after it, the unit.

Q) May I ask what Kd has been recorded for MS_M103205H1186-SG1/M103202L889-SK1 (antibody, human IgG1, kappa, V domains shown, also called MS1032LO18-SG1) VH: QVTLKESGPVLVKPTETLTLTCTVSGIDLSHDDISWVRQAPGKGLEWVGIISYAGKKYYASWAKGRLTISKDTSKNQVVLTMTNMDPVDTATYYCARGVPAYSHGGDLWGQGTLVTVSS VL: DIVMTQSPATLSLSPGERATLSCTSSQSVYHANWLSWFQQKPGQPPKLLIYWASTLAYGVPSRFSGSGSGTDFTLTISSLQPEDAATYYCAGGYGGGRYAFGQGTKVEIKR ?
A) 0.329 nM

Q) Lookup MS_M103205H1795-SG1/M103202L1060-SK1 (antibody, human IgG1, kappa, V domains shown, also called MS1032LO24-SG1) VH: QVTLKESGPVLVKPTETLTLTCTVSGIDLSHDDISWVRQAPGKGLEWVGIISYAGSTYYASWAKGRLTISKDTSKNQVVLTMTNMDPVDTATYYCARGVPAYSHGGDLWGQGTLVTVSS VL: DIVMTQSPATLSLSPGERATLSCTSSQSVFHENWLSWFQQKPGQPPKLLIYWASTLAWGVPSRFSGSGSGTDFTLTISSLQPEDAATYYCAGGYGGGRYAFGQGTKVEIKR
A) 0.164 nM

Next item in the queue.
Q) May I ask what Kd has been recorded for MS_M103245H1233-SG1/M103202L1045-SK1 (antibody, human IgG1, kappa, V domains shown, also called MS1032LO23-SG1) VH: QVTLKESGPVLVKPTETLTLTCKVSGIDLSHEDISWVRQAPGKGLEWVSIISYAGSTYYASWAKGRLTISKDTSKNQVVLTMTNMDPVDTATYYCARGVPAYSHGGDLWGQGTLVTVSS VL: DIVMTQSPATLSLSPGERATLSCTTSQSVYHENWLSWFQQKPGQPPKLLIYWASTLAYGVPSRFSGSGSGTDFTLTISSLQPEDAATYYCAGGYGGGRYAFGQGTKVEIKR ?
A) 0.26 nM
